experimental_target: T1, cynomolgus monkey CD40 on cells (cynomolgus monkey, UniProt G7PG38 21-278)
T1 construct: also called cyCD40; CHO-K1/cyCD40
T1 sequence (G7PG38 entry or part of it limits assumed): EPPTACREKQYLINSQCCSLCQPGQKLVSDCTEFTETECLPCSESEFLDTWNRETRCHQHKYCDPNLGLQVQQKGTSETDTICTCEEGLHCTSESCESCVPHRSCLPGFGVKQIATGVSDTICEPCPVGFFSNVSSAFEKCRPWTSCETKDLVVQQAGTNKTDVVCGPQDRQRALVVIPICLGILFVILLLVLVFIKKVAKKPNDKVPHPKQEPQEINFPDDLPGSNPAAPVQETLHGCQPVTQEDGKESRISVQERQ
measurement_protocol: FACS, CHO-K1/cyCD40 cells
# reported Maximum MFI; entries follow
Show the value, then the unit it is measured in.

Give its Maximum MFI value. Item: PR001306 (CDX-1140) (antibody, human IgG2, kappa, V domains shown, CD40 positive control antibody) VH: QVQLVESGGGVVQPGKSLRLSCAASGFTFSSNGIHWVRQAPGKGLEWVAVIWSDGSNKFYADSVKGRFTISRDNSKNTLYLQMNSLRAEDTAVYYCARASGSGSYYNFFDYWGQGTLVTVSS VL: EIVMTQSPATLSVSPGERATLSCRASQSVRSNLAWYQQKPGQAPRLLIYGASTRATGIPARFSGSGSGTEFTLTINSLQSEDFAVYYCQQHNKWITFGQGTRLEIKR
39700 MFI

Let us now turn to PR006503 (antibody, human IgG1, kappa, V domains shown, PR003379 variant L:N92G; human IgG1 L234A, L235A, G237A) VH: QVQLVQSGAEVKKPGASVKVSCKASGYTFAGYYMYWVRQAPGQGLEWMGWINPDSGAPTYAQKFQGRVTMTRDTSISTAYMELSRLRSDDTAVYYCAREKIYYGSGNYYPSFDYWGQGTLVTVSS VL: DIQLTQSPSFLSASVGDRVTITCRASQGISSYLAWYQQKPGKAPKLLIYAASTLQSGVPSRFSGSGSGTEFTLTISSLQPEDFATYYCQQLGSYPWTFGQGTKVEIKR
49600 MFI

And for PR006495 (antibody, human IgG1, kappa, V domains shown, PR003379 variant L:N92A; human IgG1 L234A, L235A, G237A) VH: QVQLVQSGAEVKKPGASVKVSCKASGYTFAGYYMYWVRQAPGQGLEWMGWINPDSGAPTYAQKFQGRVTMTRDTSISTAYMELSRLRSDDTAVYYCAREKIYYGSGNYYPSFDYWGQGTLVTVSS VL: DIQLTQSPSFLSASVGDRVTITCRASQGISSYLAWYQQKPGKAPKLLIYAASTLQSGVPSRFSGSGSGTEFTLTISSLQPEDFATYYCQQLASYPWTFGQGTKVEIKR ?
48000 MFI

Try this binder next: PR006493 (antibody, human IgG1, kappa, V domains shown, PR003379 variant L:N92L; human IgG1 L234A, L235A, G237A) VH: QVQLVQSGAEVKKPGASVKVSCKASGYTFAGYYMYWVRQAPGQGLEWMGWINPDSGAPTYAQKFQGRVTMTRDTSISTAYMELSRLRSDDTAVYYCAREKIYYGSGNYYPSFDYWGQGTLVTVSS VL: DIQLTQSPSFLSASVGDRVTITCRASQGISSYLAWYQQKPGKAPKLLIYAASTLQSGVPSRFSGSGSGTEFTLTISSLQPEDFATYYCQQLLSYPWTFGQGTKVEIKR
48900 MFI

Now try PR006492 (antibody, human IgG1, kappa, V domains shown, PR003379 variant L:N92E; human IgG1 L234A, L235A, G237A) VH: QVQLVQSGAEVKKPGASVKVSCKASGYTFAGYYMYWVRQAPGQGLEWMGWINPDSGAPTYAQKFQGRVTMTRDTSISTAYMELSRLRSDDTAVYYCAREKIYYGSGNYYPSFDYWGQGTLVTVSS VL: DIQLTQSPSFLSASVGDRVTITCRASQGISSYLAWYQQKPGKAPKLLIYAASTLQSGVPSRFSGSGSGTEFTLTISSLQPEDFATYYCQQLESYPWTFGQGTKVEIKR .
52200 MFI
